Biological target: Tyrosyl-tRNA synthetase, putative (Trypanosoma cruzi (strain CL Brener)) (UniProt Q4DSP6)
Sequence (whole entry): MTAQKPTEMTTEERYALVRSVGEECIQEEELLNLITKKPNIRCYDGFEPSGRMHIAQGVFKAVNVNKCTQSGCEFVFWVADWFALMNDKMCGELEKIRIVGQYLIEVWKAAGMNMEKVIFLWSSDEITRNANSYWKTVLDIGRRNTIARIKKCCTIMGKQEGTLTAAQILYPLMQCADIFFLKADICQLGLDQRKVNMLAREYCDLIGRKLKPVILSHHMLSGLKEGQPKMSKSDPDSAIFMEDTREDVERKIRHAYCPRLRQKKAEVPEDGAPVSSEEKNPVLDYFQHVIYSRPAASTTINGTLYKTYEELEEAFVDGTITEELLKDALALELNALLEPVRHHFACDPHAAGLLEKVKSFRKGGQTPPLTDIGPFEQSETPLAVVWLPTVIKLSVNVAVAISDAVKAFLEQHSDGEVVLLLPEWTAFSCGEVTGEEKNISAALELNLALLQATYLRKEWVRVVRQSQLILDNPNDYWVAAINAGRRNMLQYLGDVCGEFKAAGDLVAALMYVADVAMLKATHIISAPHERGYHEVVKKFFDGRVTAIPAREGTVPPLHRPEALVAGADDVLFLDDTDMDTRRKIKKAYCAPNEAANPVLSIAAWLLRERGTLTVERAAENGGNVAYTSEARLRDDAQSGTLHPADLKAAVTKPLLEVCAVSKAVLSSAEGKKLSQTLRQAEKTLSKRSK
Assay: Trypanosoma cruzi tyrosyl tRNA synthetase (TcYRS) _High Tyrosine SOP
Format: functional
Parameters: scale not given: in the data most compounds retested in dose-response had high values
Settings: 30 µM
Field: Percent Effect. Provide a value for each of the compounds that follow.
Give the number; % is assumed, so skip it.

Looking for the measured Percent Effect of Cc1nc(C)n(CC2CCCN(CCCOc3ccccc3)C2)n1 (stereo not given) , can you help?
3.12

Looking for the measured Percent Effect of Cc1noc(Cl)c1CCC(=O)N1CCC(CC(N)=O)CC1 , can you help?
4.43

Looking for the measured Percent Effect of CCCNCC1(O)CCCN(Cc2cccc(C)c2)C1=O (stereo not given) , can you help?
3.23

Looking for the measured Percent Effect of COc1ccc(NC(=O)CCC2CCCN(Cc3ncon3)C2)cc1Cl (stereo not given) , can you help?
8.2

Looking for the measured Percent Effect of CCc1n[nH]c(C2CN(C(=O)c3cc4c(s3)CCCC4)CCO2)n1 (stereo not given) , can you help?
1.48

Looking for the measured Percent Effect of Cc1nc(C)n(C2CCCN(C(=O)CCCOc3ccccc3)C2)n1 (stereo not given) , can you help?
2.91

Looking for the measured Percent Effect of COCC(c1cccc(C(F)(F)F)c1)N(C)C(=O)c1ccncc1 (stereo not given) , can you help?
8.33

Looking for the measured Percent Effect of Cc1c(C)n(Cc2ccccn2)c2nc3c(c(N)c12)CCCC3 , can you help?
2.12

Looking for the measured Percent Effect of Cc1cnn(CC2CCCN2C(=O)c2cn(-c3ccccc3)nc2C)c1 (stereo not given) , can you help?
7.39

Looking for the measured Percent Effect of Cc1cc(C[C@@H]2COC[C@@H]2NC(=O)CN2CCCC2)on1 , can you help?
5.38

====

target: Arginase-2, mitochondrial (Homo sapiens); test: in vitro enzyme assay to detect the production of urea directly proportional to the activity of Arginase II; type: functional; parameters: scale not given: in the data most compounds retested in dose-response had high values; settings: 33.3 µM
READOUT KIND: Percent Effect (%)
Give the number; % is assumed, so skip it.

Looking for the measured Percent Effect of Cn1ccc(CN2CCC(c3ccccc3)CC2)cc1=O , can you help?
3.92

Looking for the measured Percent Effect of CN(C)CC1CSCCCN1C(=O)Nc1ccc(C(C)(C)C)cc1 (stereo unspecified) , can you help?
-5.81

Looking for the measured Percent Effect of Cc1[nH]c(=O)[nH]c(=O)c1CN1CCCC(CCc2c(F)cccc2F)C1 (stereo unspecified) , can you help?
1.91

Looking for the measured Percent Effect of CCCn1cc(C(=O)N(C)Cc2nc(-c3ccccn3)no2)c(C)n1 , can you help?
4.69

Looking for the measured Percent Effect of CCn1c(N)nc2cc(C(=O)NCCc3sccc3C)cnc21 , can you help?
-2.73

Looking for the measured Percent Effect of CN(Cc1cccc(F)c1)C(=O)CN1CCCC1CCc1ccccc1 (stereo unspecified) , can you help?
-1.38

Looking for the measured Percent Effect of O=C(COCc1nc(-c2ccncc2)no1)N1CCCC1 , can you help?
-110

Looking for the measured Percent Effect of COc1cc(N2C[C@@H]3COC[C@]3(COCc3cccc(C)n3)C2)ncn1 , can you help?
0.955

Looking for the measured Percent Effect of CCn1ncc2c1C(COC)CN(Cc1ccsc1)C2 (stereo unspecified) , can you help?
1.24

Looking for the measured Percent Effect of O=C(CN1CCC(c2cccc(F)c2)C1)NCc1ccco1 (stereo unspecified) , can you help?
-1.53

Looking for the measured Percent Effect of Cc1ccc(CNCc2nnc3n2CCCC3C(F)(F)F)o1 (stereo unspecified) , can you help?
-3.12

Looking for the measured Percent Effect of CN(C)CC(=O)N1CCC2(CC1)CN(c1ccsc1)C(=O)CO2 , can you help?
-0.233

Looking for the measured Percent Effect of CC(C)CC(=O)N1CCc2nc(N3CCOCC3)nc(NC(C)C)c2C1 , can you help?
2.56

Looking for the measured Percent Effect of Cc1csc(N2CCN(C(=O)CCc3ccccn3)CC2)n1 , can you help?
-12.8

Looking for the measured Percent Effect of COCCNC(=O)C[C@@H]1COC[C@H]2CN(C(=O)c3cnccn3)C[C@@H]12 , can you help?
1.6

Looking for the measured Percent Effect of CCCn1c(C)c(CC(=O)NC)c2c1CC(C)(C)CC2=O , can you help?
-6.9

Looking for the measured Percent Effect of CCSCCC(=O)Nc1ncn(CC(=O)NCc2ccccc2)n1 , can you help?
3.65

Looking for the measured Percent Effect of CC(=O)N1CCC(Cc2cnc(-c3c(C)n[nH]c3C)cn2)C1 (stereo unspecified) , can you help?
0.233

Looking for the measured Percent Effect of N#Cc1cccc(CS(=O)(=O)NCCC(O)c2ccccc2)c1 (stereo unspecified) , can you help?
15.1

Looking for the measured Percent Effect of CN(C)C(=O)CN1C[C@@H]2CC[C@H](C1)N(Cc1cccc(Cl)c1Cl)C2 , can you help?
-19.6

Looking for the measured Percent Effect of CC(C)CC(=O)N1CCCn2cnc(CN3CCCC3=O)c2C1 , can you help?
1.74

Looking for the measured Percent Effect of CC(C)C(C(=O)N1CCN(Cc2ccncc2)CC1)n1cncn1 (stereo unspecified) , can you help?
-11

Looking for the measured Percent Effect of CCCOCCN1CCC2(CC1)CC(c1ccccc1)C(=O)N2C (stereo unspecified) , can you help?
-4.69

Looking for the measured Percent Effect of CCN1CCN(c2ncc(-c3cc(C)no3)c(-c3ccc(C)s3)n2)CC1 , can you help?
-4.41

Looking for the measured Percent Effect of CNC(=O)N1CC[C@H]2N(C)CC[C@@]2(C(=O)Nc2ccccc2)CC1 , can you help?
4.17

Looking for the measured Percent Effect of Cn1c(Cn2ccnc2)nnc1C1CCN(Cc2cccnc2N)CC1 , can you help?
3.53

Looking for the measured Percent Effect of Cc1nc(COCc2cnc3n2CCN(C2CCC2)C3C)cs1 (stereo unspecified) , can you help?
-57.2

Looking for the measured Percent Effect of CCN(CC)C(=O)Cn1ccc2cc(NC(=O)C3CC3)ccc21 , can you help?
-3.06

Looking for the measured Percent Effect of Cn1nc(C2CCN(C(=O)Cc3cccc(F)c3)CC2)c2cccnc21 , can you help?
-0.232

Looking for the measured Percent Effect of CN1CCCC[C@@H]2[C@H]1[C@@H](c1ccccc1)CCN2C(=O)c1ccccc1 , can you help?
0.696

Looking for the measured Percent Effect of CC(O)CN1CCN(C(=O)c2cc3ccccc3[nH]c2=O)CC1 (stereo unspecified) , can you help?
-4.73
